The reported measurements were obtained from PubChem BioAssay AID1626.

protocol details: M. tuberculosis H37Rv growth inhibitors, H37Rv strain (AID 1626);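 further: bacteria incubated seven days before Alamar blue readout; 0% = bacteria only wells and 100% = bacteria with antibiotic wells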
cond: stronger effect = higher value, concentration not given here
About 2,000 (0.91%) of roughly 220,000 compounds were called active. Another 2% or so got no clear call; they are omitted. These entries were drawn from the full list. Entries with a potency or affinity are not part of this list.
Task for the reader: assign each of the following compounds its reported inhibition.
Numbers only, in %.

compound: OC(COc1ccc(-c2ccccc2)cc1)CN1CCOCC1 (stereo unspecified)
inhibition (%): 8.22

compound: c1ccc(-c2cn(-c3ccccc3)c3ncnc(NCCCN4CCOCC4)c23)cc1
inhibition (%): 1.78

Hello, I would appreciate it if you could give inhibition for each entry below.
1. CN(C)c1ccc(C(=O)NNC(=O)c2ccc(Cl)cc2)cc1
2. O=C(Nc1nnc(-c2ccc(Cl)cc2)o1)c1ccc(N2C(=O)CCC2=O)cc1
3. Cn1c(N2CCOCC2)cc(=O)n(C)c1=O
4. COc1ccc(NC(=O)N2CCCCCC2)c(OC)c1

[-8.45, 8.01, -3.19, -4.07]
